Values compiled from paper PMC12040169.

- Assay Summary: in vitro
- Test Settings: human, hela cells, % viability
Endpoint Label: viability at 28.5 h, 10 µM

Use the examples below as a reference point.
CCOC(=O)CNS(=O)(=O)c1ccc(Cl)c(Cl)c1Cl    92%
CN1CCN(Cc2ccc(-c3ccc(C(N)=O)cc3)nc2)CC1    87.3%
c1nc(NCCCN2CCOCC2)c2c3c(sc2n1)CCCCC3    91.2%
Cc1nsc(NCc2ccccc2CN2CCC(O)CC2)c1C#N    95.1%
COc1cc(/C=C2\S/C(=N/c3ccc(S(N)(=O)=O)cc3)NC2=O)c(Br)cc1O    96.9%
Cc1ccc(S(=O)(=O)NCCc2ccccn2)s1    102%
Cc1nc(COC(=O)c2ccc(C#N)c(C)n2)cs1    88.9%
CCC(=O)N1CCC2(C/C=C/CC(=O)Nc3cccc(n3)C3CN(CCO3)C(=O)CN(C)C2=O)CC1 (centres unmarked)    105%

Memo: CC(C)(C)c1n[nH]c(C2CN(C(=O)CCc3ccco3)CCO2)n1 (centres unmarked) , reported viability at 28.5 h, 10 µM: 81.5%

// `CN(C)[C@@H]1CN(Cc2cccnc2)C[C@H]1c1cn(C)c2ccccc12` : viability at 28.5 h, 10 µM value = 110%

// viability at 28.5 h, 10 µM value for `COc1cnc(C(=O)NCc2ccccc2Cl)cc1O` : 84.6%

Entry `O=C(O)c1ccc(-c2ccc(/C=C/c3[nH]c(=O)[nH]c(=O)c3[N+](=O)[O-])o2)cc1` ; viability at 28.5 h, 10 µM = 105%

Record `COc1ccc(NC(=O)c2ccc(CN3CCOCC3)cc2)c(OC)c1` , field viability at 28.5 h, 10 µM: 91.4%

viability at 28.5 h, 10 µM reported for this compound `Nc1nc2ccccc2n1CCOc1ccc(Cl)cc1` : 85.9%

Measured viability at 28.5 h, 10 µM, `CN1CCN(c2nccnc2-c2ccccc2)CC1` : 88.7%

---

- Assay Summary: in vitro
- Test Settings: human, hela cells, % viability
Endpoint Label: viability at 28.5 h, 10 µM (%)
Field format: number, assumed %, no unit text.

O=C1CN(S(=O)(=O)CCOc2ccccc2)CC(=O)N1CCc1ccccc1    92.8
O=C(Oc1ccc(N(C(=O)c2ccncc2)S(=O)(=O)c2cccc3cccnc23)cc1)c1ccncc1    89.5
COc1ccc(Cn2c(C)nc3c([N+](=O)[O-])c(C)c(C)cc32)cc1    102
Cc1cc(NC(=O)c2cc(C)oc2C)no1    88.7
COc1ccc(S(=O)(=O)N(Cc2cc(F)cc(F)c2)C2CCNCC2)cc1 [CBK165292T]    89.8
Cc1ccc(NC(=O)N(C)C2CCN(C)C2)cc1 (stereo not drawn)    103
NC(=O)CN1CCC2(CC1)CN(CC(N)=O)c1ccccc12    100
Cc1ccccc1CNCCNCCO [CBK278293C]    98

With those in mind, consider the next molecule.
So, COc1ccc(CCN2CCC(Oc3nccnc3OCc3cccnc3)CC2)cc1OC [CBK083179T] ? Its viability at 28.5 h, 10 µM was 99

---

viability at 28.5 h, 10 µM values by entry
- Assay Summary: in vitro
- Test Settings: human, hela cells, % viability
The reply should contain only the number, in %.

Cc1cc2oc(C(=O)Nc3sc4c(c3C(=O)NC3CCS(=O)(=O)C3)CCC(C)C4)c(C)c2cc1C (stereo not shown) [CBK266351]    92.2
O=S(=O)(NCc1cccnc1)c1ccc(Cl)c(Cl)c1Cl [CBK264032]    91.1
COc1ccc2c(c1)-c1c(ss/c1=N\c1ccc(S(N)(=O)=O)cc1)C(C)(C)N2 [CBK263339]    88.7

Let's switch to this compound now.
Reported viability at 28.5 h, 10 µM for CC(=O)Nc1ccc(/C=N/NC(=O)CN2CCCCCCC2)cc1 [CBK261617] was 88.8

---

- Assay Summary: in vitro
- Test Settings: human, hela cells, % viability
Listed next: entries and their corresponding viability at 28.5 h, 10 µM.
Give just the numeric value; % need not be written.

Before answering, review these 8 worked examples.
CC(C)(C)NS(=O)(=O)c1ccc(NC(=O)NC2CCCCC2)cc1 [CBK267324]    96.7
CCc1nn(CC(=O)NC2CC2)c(=O)c2cc3ccsc3n12 [CBK284128]    88.6
CCC(C)(C)c1ccc(S(=O)(=O)N2CCN(Cc3ccc(C(C)=O)cc3)CC2)cc1 [CBK062826]    95.1
CN(C)CCCN(C(=O)c1ccccc1)c1nc2ccc(F)cc2s1 [CBK287640]    97.4
OC[C@H]1O[C@@H](n2cnc3c(Cl)ncnc32)C(O)[C@H]1O (stereo partly shown) [CBK201266]    99.1
Cc1ccc(NC(=O)COc2ccccc2)c(NC(=O)c2ccccc2I)c1 [CBK266793]    98.2
O=C(C1CC1)N1C2CCC1Cn1c(nc3ccccc3c1=O)C2 (stereo not shown) [CBK284451]    92.2
Cc1sc2ncnc(SCC(=O)Nc3sc4c(c3C#N)CCCC4)c2c1-c1ccccc1 [CBK265938]    93.3

Per the records, this compound ( O=C(CCc1cccnc1)NC1Cc2ccccc2C1 [CBK200352] ) has viability at 28.5 h, 10 µM equal to 97.4

# viability at 28.5 h, 10 µM of O=C(NC(=O)C1CCN(CCc2cccc(C(F)(F)F)c2)CC1)Nc1cccc2ccccc12 [CBK035070] = 92.2

---

- Assay Summary: in vitro
- Test Settings: human, hela cells, % viability
The following molecules are listed with their measured viability at 28.5 h, 10 µM values.
Answer format: numeric, % implied, no suffix.

Look over these answered cases.
CC(=O)N1CC[C@H]2NC(=O)CNC(=O)C3(CCCC[C@H]2C1)CCN(C(=O)c1ccc(C)nc1)CC3 [CBK292172]    94.7
O=C(CCOc1ccccc1)Nc1cncc(OC2CCNCC2)n1 [CBK026734T]    95.2
O=C(NC1CCCC1)c1ccc2c(c1)OCO2 [CBK002177]    81
COc1ccccc1NS(=O)(=O)c1ccc(C)c(C(=O)NCC(c2ccco2)N2CCCCC2)c1 (stereo not drawn) [CBK296669]    81.3
CC(C)(Oc1ccc(Br)cc1)C(=O)NCCOc1ccccc1 [CBK268287]    114
CCCNC(=O)N1CCC(n2c(C)nc3cccnc32)CC1 [CBK282292]    88.9

Then this molecule:
Notebook: C=CCNC(=O)C1C2CCC3(CC(=O)c4cc(Cl)ccc4O3)C21 (stereo not drawn) [CBK284873] , viability at 28.5 h, 10 µM read as 86.3

---

- Assay Summary: in vitro
- Test Settings: human, hela cells, % viability
# viability at 28.5 h, 10 µM per record follows
// units = %; emit number, no label

c1ccc(COc2ccccc2-c2cc(Nc3ccc4[nH]ccc4c3)ncn2)cc1    107
O=C(O)CNC(=O)CNC(=O)C12CC3CC(CC(C3)C1)C2    81.4

Now look at this one.
Looking up COC(=O)c1ccc2c(=O)n(CC3CCCO3)c(SC)nc2c1 (stereo not drawn) , I see its viability at 28.5 h, 10 µM listed as 108

---

- Assay Summary: in vitro
- Test Settings: human, hela cells, % viability
Each entry below carries its reported viability at 28.5 h, 10 µM.
Reply numerically in %, unit not repeated.

Previously resolved entries follow.
O=C(O)CCC(=O)NCC1(c2ccccc2)CCCC1    89.7
Cc1nn(C(C)CC(=O)NCCN2CCc3ccccc32)c(C)c1C (stereo not shown)    87.1
O=C(O)c1ccc(N2C(=O)CC(N3CCN(Cc4ccccc4)CC3)C2=O)cc1 (stereo not shown)    94.7
O=C(CC1S/C(=N/N=C/c2ccc(-c3cc([N+](=O)[O-])ccc3Cl)o2)NC1=O)Nc1ccccc1 (stereo not shown)    95.3

Per the records, this compound ( `Cc1cc(C[C@@H]2COC[C@H]2NCc2ccccc2Cl)on1` ) has viability at 28.5 h, 10 µM equal to 94.8

Looking up `COC(=O)c1ccc2c(=O)n(CC(C)C)c(SC)nc2c1` , I see its viability at 28.5 h, 10 µM listed as 81.3

Per the record, `COc1ccc(-c2nc(NC(=O)c3ccc(S(N)(=O)=O)cc3)cnc2-c2cccc(C)c2)cc1` has viability at 28.5 h, 10 µM of 103

Record `O=[N+]([O-])c1cnc(NS(=O)(=O)c2ccccc2Br)s1` , field viability at 28.5 h, 10 µM: 96.2

Value of measured viability at 28.5 h, 10 µM for the entry `O=C(Oc1ccc(-c2cnc3ccccc3n2)cc1)c1ccc(S(=O)(=O)N2CCCCC2)cc1` : 93.7

Form field viability at 28.5 h, 10 µM, entry `CCCNc1nc(-c2cc(OC)c(OC)c(OC)c2)cn2ccnc12` : 99.2

According to the records, this compound `CCOC(=O)CN1CCN(S(=O)(=O)c2ccc(F)c(Cl)c2)CC1` displays viability at 28.5 h, 10 µM of 89.3

Measured viability at 28.5 h, 10 µM, `N/C(=N\O)c1ccc(OC(F)(F)F)cc1` : 97.2

Entry `O=C(Nc1nnn[nH]1)C12CC3CC(CC(C3)C1)C2` ; viability at 28.5 h, 10 µM = 82.4

Memo: CCOC(=O)C1CCCN(CCC(=O)Nc2ccccc2)C1 (stereo not shown) [CBK264192C] , reported viability at 28.5 h, 10 µM: 91.7

Lab book: viability at 28.5 h, 10 µM of `CCNC(=O)C1(Cc2ccccc2-c2ccccc2)CCN(C(=O)c2csc(C)c2)CC1` noted as 93.3

Field viability at 28.5 h, 10 µM (entry Cc1ccc(C2Nc3ccccc3C3=NCCCN32)o1 (stereo not shown) ) reads 103
